Quick list: TGI per entry.
test system: HCT-116 colon; experiment: NCI tumour cell line growth inhibition, 48 h
Attribute measured: TGI

CC/C(CC(=O)CCC(=O)Nc1c(C)cccc1C)=N\NC(=O)NN ... > 100 µM
O=C1CNc2cc(N3CCN(c4ccccc4)CC3)ccc2N1 ... > 100 µM
N#CC(C#N)=C/C=C(\Sc1ccc(F)c(Cl)c1)c1ccc(Cl)cc1 ... 0.799 µM
COc1ccc(-c2[nH]c(=O)n(C3OC(CO)C(O)C(O)C3O)c(=O)c2C#N)cc1 (stereo unspecified) ... > 100 µM
CCOC1=CP(=O)(OCC)CC(C)=C1Cl (stereo unspecified) ... > 100 µM
Cc1[nH]c2c(C)cccc2c1C1Cc2ccccc2N1 (stereo unspecified) ... 30.9 µM
CC(C)=CC(=O)OCC(=O)O[C@@H]1C[C@]2(C(C)C)O[C@@]1(C)[C@@H]1CC[C@@H](C)[C@H]1[C@@H]2OC(=O)/C=C/c1ccccc1 ... > 100 µM
Cc1cn(CCOCCOC(=O)NC(CCCN=C(N)N)C(=O)O)c(=O)[nH]c1=O (stereo unspecified) ... > 100 µM
CN(O)C(=O)c1ccccc1 ... > 100 µM
CCCCCC(/C=N/Nc1ccccc1)C(O)(C(F)(F)F)C(F)(F)F (stereo unspecified) ... > 100 µM
Cc1cccc(NC(=O)c2sc3nc4c(cc3c2N)CCCC4)c1 ... > 100 µM

----------
tested on: HOP-92 NSCLC; experiment: NCI tumour cell line growth inhibition, 48 h
TGI vs 20 µM: at or above is met, below is not met.

O=C(Nc1cccc(C(F)(F)F)c1)C(=O)C(C(=O)c1ccc2ccccc2c1)C1OC(=O)c2ccccc21 (centres undefined) ... met
CCCCCC(/C=N/Nc1ccccc1)C(O)(C(F)(F)F)C(F)(F)F (centres undefined) ... met
CC1(C)CCC(S(=O)(=O)c2ccc3c(c2)/C(=N\O)c2cc(S(=O)(=O)N4CCN(c5ccc(F)cc5O)CC4)ccc2-3)CC1 ... not met
COc1cc(/C=C2\CC3C4CCC5=CC(=O)CC[C@]5(C)C4CC[C@]3(C)C2=O)ccc1OCCCn1ccnc1 (some centres undefined) ... met
CCCCC1=C(Br)C(=C(Br)Br)OC1=O ... met
COC(=O)[C@@]12OC[C@]34[C@H]([C@@H](O)[C@@H]1O)[C@@]1(C)CC(=O)C(OC(C)=O)=C(C)[C@@H]1C[C@H]3OC(=O)[C@H](OC(=O)C=C(C)C)[C@@H]24 ... not met
CN1C(NN)=NS(=O)(=O)c2ccccc21 ... met
COc1ccc2c(c1)O[C@@H]1c3ccc(OC)cc3OC[C@H]21 ... met
CCN(CC)CCCNc1nc2ccccc2[n+]([O-])n1 ... met

----------
test system: KM12 colon; assay: NCI tumour cell line growth inhibition, 48 h
Measured TGI of individual entries
Attribute measured: TGI

O=c1[nH]c(=O)n(C2OC(CO)C(N(O)Cc3ccc(F)cc3)C2O)cc1Br (stereo unspecified) ... > 100 µM
Cc1ccc2nc(C=Nc3ccccc3Cl)cc(C)c2c1 ... 35.9 µM
COc1cc(/C=N/N=C(\N)NO)cc(Cl)c1O ... > 100 µM
CC/C(CC(=O)CCC(=O)Nc1c(C)cccc1C)=N\NC(=O)NN ... > 100 µM
O=C(O)c1ccccc1SCc1cccc2c(=O)c3ccc(Cl)cc3oc12 ... > 50 µM
CC1=C(SCCC(=O)OCC(=O)NCCC[Te]c2ccccc2)C(=O)c2ccccc2C1=O ... 10.1 µM

----------
system: HL-60(TB) leukemia; experiment: NCI tumour cell line growth inhibition, 48 h
Recorded TGI, one value per entry.
Attribute measured: TGI

CC(=O)Nc1cc(C(=O)Nc2cc(C(=O)Nc3cc(C(=O)Nc4cc(C(=O)Nc5cc(C(=O)NCCC(=O)NCCCN(C)C)n(C)c5)n(C)c4)n(C)c3)n(C)c2)n(C)c1 ... > 100 µM
Cc1cn(CCOCCOC(=O)NC(CCCN=C(N)N)C(=O)O)c(=O)[nH]c1=O (centres undefined) ... > 100 µM
NC(N)=NS(=O)(=O)c1ccc(NC(=O)c2cccc3c(NNc4ccc(C(=O)O)cc4)c4ccccc4nc23)cc1 ... > 100 µM
CC/C(CC(=O)CCC(=O)Nc1c(C)cccc1C)=N\NC(=O)NN ... > 100 µM
COc1cc(OC)cc(Oc2nc3cc(N)cc(N)c3nc2-c2ccccc2)c1 ... 25.9 µM
O=c1nc2sc3ccc4ccccc4c3n2nc1-c1ccccc1 ... > 100 µM
Cc1c(NC(=O)c2cc(C(N)=O)nc3cc(F)ccc23)c(C(F)(F)F)nn1Cc1ccc(C#N)cc1 ... > 100 µM
CCN1C/C(=C\c2cc(OC)c(OC)c(OC)c2)C2=NN(c3ccccc3)C(c3cc(OC)c(OC)c(OC)c3)C2C1 (centres undefined) ... > 23.8 µM
O=C1Nc2c(Cl)cc(Cl)cc2/C1=N/N=C/c1ccccc1O ... 49.7 µM

----------
tested on: SN12C renal; assay: NCI tumour cell line growth inhibition, 48 h
Form field: TGI (one value per entry).
Attribute measured: TGI

CC12OC(=O)[C@@]3(O)CCC4C(C[C@H]5O[C@]56CC=CC(=O)[C@]46C)C45OC[C@H]6C(=O)O[C@@H]1C[C@@]6(C)[C@H](C4=O)C23O5 (stereo partly drawn) ... 5.39 µM
COC(=O)[C@@H](Nc1ccccc1)[C@@]1(C(=O)OC)SC12c1ccccc1-c1ccccc12 ... > 100 µM
O=c1oc2ccccc2c(O)c1/C=N/C(=S)Nc1ccccc1 ... > 100 µM
CN(O)C(=O)c1ccccc1 ... > 100 µM
O=C(Nc1cccc(C(F)(F)F)c1)C(=O)C(C(=O)c1ccc2ccccc2c1)C1OC(=O)c2ccccc21 (stereo not drawn) ... 36.9 µM
CC(=O)Oc1ccc2c(c1OC(C)=O)CCC1C2=CC[C@]2(C)C(=O)CCC12 (stereo partly drawn) ... 28.1 µM
C=C(Br)CN(C)CC(=C)Br ... > 100 µM
Cc1nc(-c2nc(C)c(C(=O)/C=C/c3ccc(N(C)C)cc3)s2)sc1C(=O)/C=C/c1ccc(N(C)C)cc1 ... > 100 µM
O=C1c2cccc3cc4ccccc4c(c23)C(=O)N1CCNCCNCCNCCN1C(=O)c2cccc3cc4ccccc4c(c23)C1=O ... 1.41 µM
Cc1ccc(C(=O)Nc2ccc(S(=O)(=O)O)c3cc(S(=O)(=O)O)cc(S(=O)(=O)O)c23)cc1NC(=O)Nc1cc(C(=O)Nc2ccc(S(=O)(=O)O)c3cc(S(=O)(=O)O)cc(S(=O)(=O)O)c23)ccc1C ... > 87.5 µM
CC(=O)Nc1cc(C(=O)Nc2cc(C(=O)Nc3cc(C(=O)Nc4cc(C(=O)Nc5cc(C(=O)NCCC(=O)NCCCN(C)C)n(C)c5)n(C)c4)n(C)c3)n(C)c2)n(C)c1 ... > 100 µM
CC(=O)Nc1ccc(-c2csc(Nc3ccc(-c4csc(-c5ccccc5)n4)cc3)n2)cc1 ... 23.9 µM
OC(Cc1cccnc1)(c1ccccc1)c1ccccc1 ... > 100 µM
O=C(O)/C=N/NC(=S)NC1CCCCC1 ... > 100 µM
COC(O)C12OC3CO[Si](C(C)C)(C(C)C)O[Si](C(C)C)(C(C)C)OC3C1Oc1nc(=O)ccn12 (stereo not drawn) ... 27.8 µM
CC(C)=CCC[C@@H](C)C1=C(O)C(c2c(I)c(=O)n(C)c(=O)n2C)=C(C)C(=O)C1=O ... > 100 µM
Cc1sccc1C(=S)Nc1ccc(Cl)c(/C=N/OC(C)(C)C)c1 ... 25.6 µM
OCCNc1ncnc2nc[nH]c12 ... > 100 µM
CCc1cccc(C(C)C)c1NC(=O)C(=O)C1C(=O)NC(=O)NC1=O ... > 100 µM
C[C@H](CCC(=O)NN)[C@H]1CC[C@H]2[C@@H]3CC[C@@H]4C[C@H](O)CC[C@]4(C)[C@H]3CC[C@]12C ... > 100 µM
CCN(CC)c1ccc(N=O)cc1 ... 17.2 µM
COc1cc(OC)cc(Oc2nc3cc(N)cc(N)c3nc2-c2ccccc2)c1 ... 22.3 µM
CN(CCNC(=O)c1[nH]nc2c1Cc1ccccc1-2)CCNC(=O)c1[nH]nc2c1Cc1ccccc1-2 ... 31.8 µM
C[N+]1(C)C/C(=C/c2ccc(F)cc2)C(=O)/C(=C\c2ccc(F)cc2)C1 ... 11.9 µM
O=C(O)c1ccccc1SCc1cccc2c(=O)c3ccc(Cl)cc3oc12 ... > 50 µM
C=C1C(=O)OC2C1CC[C@H](C)C1(O)C(O)CC(=O)[C@@]21C (stereo partly drawn) ... 45.1 µM
CN(C)c1ccc(-c2[nH]c(=O)c3ccccc3[n+]2C)cc1 ... > 100 µM
CCN(C1=CC(=O)NC2CCCCN12)c1ccccc1 (stereo not drawn) ... > 100 µM
COc1cc2c[n+]3ccc4cc(OC)c(OC)cc4c3cc2cc1O ... > 100 µM
CCOC(=O)N1C=NC23C(c4ccccc4)C(c4ccccc4)C12C(=O)N(C)C(=O)N3C (stereo not drawn) ... > 100 µM
COc1cc(Nc2cc(C)nc(N3CCN(c4ccnc5cc(Cl)ccc45)CC3)n2)cc(OC)c1 ... > 100 µM
COc1ccc(-c2[nH]c(=O)n(C3OC(CO)C(O)C(O)C3O)c(=O)c2C#N)cc1 (stereo not drawn) ... > 100 µM
CC[C@H]1C[C@@H](O)[C@@H]2[C@H](O)[C@H](O)CN2C1 ... > 100 µM
CC(C)(C)c1ccc(O)c(C[N+](C)(C)C)c1 ... > 100 µM
COC(=O)[C@@]12OC[C@]34[C@H]([C@@H](O)[C@@H]1O)[C@@]1(C)CC(=O)C(OC(C)=O)=C(C)[C@@H]1C[C@H]3OC(=O)[C@H](OC(=O)C=C(C)C)[C@@H]24 ... 4.52 µM
Cn1cc(C2=C(Sc3ccccc3)C(=O)NC2=O)c2ccccc21 ... > 25 µM
CCCCC1=C(Br)C(=C(Br)Br)OC1=O ... 7.92 µM
C=CCNC(=O)/C=C\C(=O)O ... > 100 µM
